- protocol: The drug is tested on WLS-052 corresponding to human gut metagenome with ENA study accession number: PRJEB37062 and ENA sample accession number: ERS12561747 for biotransformation under anaerobic condition. The drug concentrations were measured over 9 timepoints collected between 0 and 24 hours of incubation by liquid-chromatography-coupled mass spectrometry (LC–MS); further: call rule not given here
- condition info: 2 µM
measured attribute: Bacterial Biotransformation

Please review the entries below; each comes with its answer.
- compound: "NC(CO)(CO)CO.O=C(c1ccccc1)c1ccc2n1CCC2C(=O)O (configuration not stated)"
  Bacterial Biotransformation: "Compound metabolized"
- compound: "CCCCC(=O)N(Cc1ccc(-c2ccccc2-c2nnn[nH]2)cc1)[C@H](C(=O)O)C(C)C"
  Bacterial Biotransformation: "Compound metabolized"
- compound: "CCC(COC(=O)c1cc(OC)c(OC)c(OC)c1)(c1ccccc1)N(C)C.O=C(O)/C=C\\C(=O)O (configuration not stated)"
  Bacterial Biotransformation: "Compound NOT metabolized"
- compound: "CCCc1nc2c(C)cc(-c3nc4ccccc4n3C)cc2n1Cc1ccc(-c2ccccc2C(=O)O)cc1"
  Bacterial Biotransformation: "Compound metabolized"
- compound: "CC(=O)CC(c1ccccc1)c1c(O)c2ccccc2oc1=O (configuration not stated)"
  Bacterial Biotransformation: "Compound metabolized"

Would you mind telling me what Bacterial Biotransformation value was observed for CN1CCN(C(=O)O[C@H]2c3nccnc3C(=O)N2c2ccc(Cl)cn2)CC1 ?
Compound NOT metabolized

Would you mind telling me what Bacterial Biotransformation value was observed for CCC(=O)NCC[C@@H]1CCc2ccc3c(c21)CCO3 ?
Compound metabolized

Would you mind telling me what Bacterial Biotransformation value was observed for CCCc1nn(C)c2c(=O)[nH]c(-c3cc(S(=O)(=O)N4CCN(C)CC4)ccc3OCC)nc12.O=C(O)CC(O)(CC(=O)O)C(=O)O [SILDENAFIL CITRATE] ?
Compound NOT metabolized

Would you mind telling me what Bacterial Biotransformation value was observed for COc1cc2c(c(OC)c1OC)-c1ccc(OC)c(=O)cc1[C@@H](NC(C)=O)CC2 ?
Compound NOT metabolized

###

- protocol: The drug is tested on Z-006 corresponding to mouse gut metagenome with ENA study accession number: PRJEB37062 and ENA sample accession number: ERS12561806 for biotransformation under anaerobic condition. The drug concentrations were measured over 9 timepoints collected between 0 and 24 hours of incubation by liquid-chromatography-coupled mass spectrometry (LC–MS)
- condition info: 2 µM
measured attribute: Bacterial Biotransformation

Please review the entries below; each comes with its answer.
- compound: "COc1ccc2c(c1OC)C(=O)O[C@@H]2[C@H]1c2c(cc3c(c2OC)OCO3)CCN1C"
  value: "Compound NOT metabolized"
- compound: "CN(C)CCC=C1c2ccccc2C=Cc2ccccc21"
  value: "Compound NOT metabolized"
- compound: "CNC(=C[N+](=O)[O-])NCCSCc1csc(CN(C)C)n1"
  value: "Compound NOT metabolized"
- compound: "CCN(CC)CCNC(C(=O)OCCC(C)C)c1ccccc1.Cl.Cl (centres undefined)"
  value: "Compound NOT metabolized"

Would you mind telling me what Bacterial Biotransformation value was observed for NC12CC3CC(CC(C3)C1)C2 ?
Compound NOT metabolized

Would you mind telling me what Bacterial Biotransformation value was observed for CC(=O)OCC(=O)[C@@]12N=C(C)O[C@@H]1C[C@H]1[C@@H]3CCC4=CC(=O)C=C[C@]4(C)[C@H]3[C@@H](O)C[C@@]12C ?
Compound metabolized

Would you mind telling me what Bacterial Biotransformation value was observed for CN/C(=N/CCSCc1nc[nH]c1C)NC#N ?
Compound NOT metabolized

Would you mind telling me what Bacterial Biotransformation value was observed for CCN(CC)C(C)CN1c2ccccc2Sc2ccccc21 (centres undefined) ?
Compound NOT metabolized

Would you mind telling me what Bacterial Biotransformation value was observed for Cc1cn([C@H]2C[C@H](N=[N+]=[N-])[C@@H](CO)O2)c(=O)[nH]c1=O ?
Compound NOT metabolized
